- assay.target: Protein cereblon/Signal transducer and activator of transcription 3 (Homo sapiens, UniProt P40763+Q96SW2)
- Sequence (P40763 whole entry): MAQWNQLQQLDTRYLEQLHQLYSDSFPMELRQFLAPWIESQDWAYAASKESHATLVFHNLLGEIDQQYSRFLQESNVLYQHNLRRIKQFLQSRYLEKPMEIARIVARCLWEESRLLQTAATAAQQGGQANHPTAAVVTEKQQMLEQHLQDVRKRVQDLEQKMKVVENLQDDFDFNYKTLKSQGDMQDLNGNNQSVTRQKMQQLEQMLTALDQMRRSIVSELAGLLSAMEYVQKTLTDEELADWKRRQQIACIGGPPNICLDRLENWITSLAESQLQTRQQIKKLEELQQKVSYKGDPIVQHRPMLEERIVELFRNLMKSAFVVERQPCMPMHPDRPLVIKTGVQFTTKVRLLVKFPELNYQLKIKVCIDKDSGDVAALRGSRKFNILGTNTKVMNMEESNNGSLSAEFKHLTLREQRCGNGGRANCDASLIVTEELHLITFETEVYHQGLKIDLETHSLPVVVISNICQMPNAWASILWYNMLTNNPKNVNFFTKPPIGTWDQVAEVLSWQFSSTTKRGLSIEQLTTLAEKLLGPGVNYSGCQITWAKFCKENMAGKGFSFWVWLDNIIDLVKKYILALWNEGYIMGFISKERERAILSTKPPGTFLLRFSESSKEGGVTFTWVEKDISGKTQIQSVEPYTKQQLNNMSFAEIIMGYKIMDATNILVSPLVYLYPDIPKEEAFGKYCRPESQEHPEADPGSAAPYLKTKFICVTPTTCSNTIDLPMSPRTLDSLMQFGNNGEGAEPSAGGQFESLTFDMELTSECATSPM
- Sequence (Q96SW2 whole entry): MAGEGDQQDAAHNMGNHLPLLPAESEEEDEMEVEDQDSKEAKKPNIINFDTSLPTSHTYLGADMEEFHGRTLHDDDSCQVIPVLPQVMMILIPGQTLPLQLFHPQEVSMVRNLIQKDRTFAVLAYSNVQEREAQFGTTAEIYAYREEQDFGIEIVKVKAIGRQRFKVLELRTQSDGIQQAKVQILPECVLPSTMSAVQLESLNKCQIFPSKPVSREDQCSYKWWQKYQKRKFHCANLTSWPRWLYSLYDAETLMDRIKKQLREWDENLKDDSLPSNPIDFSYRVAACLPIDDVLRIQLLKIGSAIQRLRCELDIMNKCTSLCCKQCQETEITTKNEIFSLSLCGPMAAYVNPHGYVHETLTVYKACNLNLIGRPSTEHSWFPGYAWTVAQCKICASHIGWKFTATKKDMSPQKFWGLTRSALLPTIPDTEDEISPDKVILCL
- method.description: Protac activity at CRBN/STAT3 in human MOLM16 cells assessed as degradation of STAT3 incubated for 4 hrs by Western blot analysis
- Assay type: cell-based
property.label: DC50 (µM)
Please respond with the number in µM and leave the unit unwritten.

>>> result_value("NC(=O)CC[C@H](NC(=O)[C@@H]1CC[C@@H]2CCN(C(=O)CCCCCC#Cc3cccc4c3C(=O)N(C3CCC(=O)NC3=O)C4=O)C[C@H](NC(=O)c3cc4cc(C(F)(F)P(=O)(O)O)ccc4[nH]3)C(=O)N21)C(=O)NC(c1ccccc1)c1ccccc1 (some centres not stated)")
3.54

Field: next compound
Answer with reported DC50 of C/C(=C\C(=O)N[C@H]1CN(C(=O)CCCCCC#Cc2cccc3c2CN(C2CCC(=O)NC2=O)C3=O)CC[C@H]2CC[C@@H](C(=O)N[C@@H](CCC(N)=O)C(=O)NC(c3ccccc3)c3ccccc3)N2C1=O)c1ccc(C(F)(F)P(=O)(O)O)cc1 (some centres not stated)
4.45

###

This section presents compounds with their documented DC50 values.
- assay.target: Protein cereblon/Signal transducer and activator of transcription 3 (Homo sapiens, UniProt P40763+Q96SW2)
- method.description: Protac activity at CRBN/STAT3 in human SUDHL1 cells assessed as degradation of STAT3 incubated for 16 hrs by Western blot analysis
- Format: cell-based
Quick note: give the figure in nM, leave out the unit.

>>> result_value("NC(=O)CC[C@H](NC(=O)[C@@H]1CC[C@@H]2CCN(C(=O)CCCCCC#Cc3cccc4c3CN(C3CCC(=O)NC3=O)C4=O)C[C@H](NC(=O)c3cc4cc(C(F)(F)P(=O)(O)O)ccc4[nH]3)C(=O)N21)C(=O)NCc1ccccc1 (some centres undefined)")
55

Pending compound:
# return recorded DC50 for input NC(=O)CC[C@H](NC(=O)[C@@H]1CC[C@@H]2CCN(C(=O)CCCCCC#Cc3cccc4c3CN(C3CCC(=O)NC3=O)C4=O)C[C@H](NC(=O)c3cc4cc(C(F)(F)P(=O)(O)O)ccc4[nH]3)C(=O)N21)C(=O)NC(c1ccccc1)c1ccccc1 (some centres undefined)
28

###

- assay.target: Protein cereblon/Signal transducer and activator of transcription 3 (Homo sapiens, UniProt P40763+Q96SW2)
- method.description: Protac activity at CRBN/STAT3 in human MOLM16 cells assessed as degradation of STAT3 incubated for 4 hrs by Western blot analysis
- Type: cell-based
Items are presented alongside their recorded DC50.
Entry rule: numbers only, all in nM.

Reference set (3 entries):
>>> result_value("NC(=O)CC[C@H](NC(=O)[C@@H]1CC[C@@H]2CCN(C(=O)CCCCCC#Cc3ccc4c(c3)C(=O)N(C3CCC(=O)NC3=O)C4)C[C@H](NC(=O)c3cc4cc(C(F)(F)P(=O)(O)O)ccc4[nH]3)C(=O)N21)C(=O)NC(c1ccccc1)c1ccccc1 (some centres undefined)")
360
>>> result_value("NC(=O)CC[C@H](NC(=O)[C@@H]1CC[C@@H]2CCN(C(=O)CC(=O)N3CCC(C#Cc4cccc5c4CN(C4CCC(=O)NC4=O)C5=O)CC3)C[C@H](NC(=O)c3cc4cc(C(F)(F)P(=O)(O)O)ccc4[nH]3)C(=O)N21)C(=O)NC(c1ccccc1)c1ccccc1 (some centres undefined)")
380
>>> result_value("NC(=O)CC[C@H](NC(=O)[C@@H]1CC[C@@H]2CCN(C(=O)N3CCC(CCC#Cc4cccc5c4CN(C4CCC(=O)NC4=O)C5=O)CC3)C[C@H](NC(=O)c3cc4cc(C(F)(F)P(=O)(O)O)ccc4[nH]3)C(=O)N21)C(=O)NC(c1ccccc1)c1ccccc1 (some centres undefined)")
180

Shift focus to the following entry.
Answer with the recorded DC50 of NC(=O)CC[C@H](NC(=O)[C@@H]1CC[C@@H]2CCN(C(=O)CCCCCC#Cc3ccc4c(c3)CN(C3CCC(=O)NC3=O)C4=O)C[C@H](NC(=O)c3cc4cc(C(F)(F)P(=O)(O)O)ccc4[nH]3)C(=O)N21)C(=O)NC(c1ccccc1)c1ccccc1 (some centres undefined) only.
410

###

- assay.target: Protein cereblon/Signal transducer and activator of transcription 3 (Homo sapiens, UniProt P40763+Q96SW2)
- method.description: Protac activity at CRBN/STAT3 in human MOLM16 cells assessed as degradation of STAT3 incubated for 4 hrs by Western blot analysis
- Assay type: cell-based
Below: a set of entries, each annotated with reported DC50.
Write it as a number; the unit µM goes unstated.

Worked cases, answers included:
>>> result_value("NC(=O)CC[C@H](NC(=O)[C@@H]1CC[C@@H]2CCN(C(=O)CCN3CCC(C#Cc4cccc5c4CN(C4CCC(=O)NC4=O)C5=O)CC3)C[C@H](NC(=O)c3cc4cc(C(F)(F)P(=O)(O)O)ccc4[nH]3)C(=O)N21)C(=O)NC(c1ccccc1)c1ccccc1 (some centres undefined)")
2.47
>>> result_value("CNC(=O)[C@H](CCC(N)=O)NC(=O)[C@@H]1CC[C@@H]2CCN(C(=O)CCCCCC#Cc3cccc4c3CN(C3CCC(=O)NC3=O)C4=O)C[C@H](NC(=O)c3cc4cc(C(F)(F)P(=O)(O)O)ccc4[nH]3)C(=O)N21 (some centres undefined)")
0.64
>>> result_value("NC(=O)CC[C@H](NC(=O)[C@@H]1CC[C@@H]2CCN(C(=O)CCCCCC#Cc3cccc4c3CN(C3CCC(=O)NC3=O)C4=O)C[C@H](NC(=O)c3cc4cc(C(F)(F)P(=O)(O)O)ccc4[nH]3)C(=O)N21)C(=O)NCc1ccccc1 (some centres undefined)")
0.22

// next entry
Query DC50 for NC(=O)CC[C@H](NC(=O)[C@@H]1CC[C@@H]2CCN(C(=O)NCCCCC#Cc3cccc4c3CN(C3CCC(=O)NC3=O)C4=O)C[C@H](NC(=O)c3cc4cc(C(F)(F)P(=O)(O)O)ccc4[nH]3)C(=O)N21)C(=O)NC(c1ccccc1)c1ccccc1 (some centres undefined)
0.05

###

// reported pIC50 per item
- method.description: Antiproliferative activity against human MOLM16 cells assessed as reduction in cell viability incubated for 4 days by cell-titer glo luminescent assay
- Assay type: functional, cell-based
- measurement.setup: MOLM16, 96 h
Value format note: pIC50 is -log10 of concentration (mol/L); just state the number.

Provide pIC50 value for the following compound: NC(=O)CC[C@H](NC(=O)[C@@H]1CC[C@@H]2CCN(C(=O)CCCCCC#Cc3cccc4c3CN(C3CCC(=O)NC3=O)C4=O)C[C@H](NC(=O)c3cc4cc(C(F)(F)P(=O)(O)O)ccc4[nH]3)C(=O)N21)C(=O)NCc1ccccc1 (some centres undefined)
6.68

Please list pIC50 recorded for the compound NC(=O)CC[C@H](NC(=O)[C@@H]1CC[C@@H]2CCN(C(=O)OCCCCC#Cc3cccc4c3CN(C3CCC(=O)NC3=O)C4=O)C[C@H](NC(=O)c3cc4cc(C(F)(F)P(=O)(O)O)ccc4[nH]3)C(=O)N21)C(=O)NC(c1ccccc1)c1ccccc1 (some centres undefined)
6.89

Indicate its recorded pIC50; the compound in question is NC(=O)CC[C@H](NC(=O)[C@@H]1CC[C@@H]2CCN(C(=O)CCCC#Cc3cccc4c3CN(C3CCC(=O)NC3=O)C4=O)C[C@H](NC(=O)c3cc4cc(C(F)(F)P(=O)(O)O)ccc4[nH]3)C(=O)N21)C(=O)NC(c1ccccc1)c1ccccc1 (some centres undefined)
6.02

Output pIC50 of NC(=O)CC[C@H](NC(=O)[C@@H]1CC[C@@H]2CCN(C(=O)CCCCCC#Cc3cccc4c3CN(C3CCC(=O)NC3=O)C4=O)C[C@H](NC(=O)c3cc4cc(C(F)(F)P(=O)(O)O)ccc4[nH]3)C(=O)N21)C(=O)NC(c1ccccc1)c1ccccc1 (some centres undefined)
7.89

###

- method.description: Antiproliferative activity against human MOLM16 cells assessed as reduction in cell viability incubated for 4 days by cell-titer glo luminescent assay
- Type: functional, cell-based
- measurement.setup: MOLM16, 96 h
The reader will find reported IC50 values listed item by item below.
Enter your answer as a number in nM; do not include the unit.

In the examples that follow, each entry is paired with its recorded IC50.
>>> result_value("NC(=O)CC[C@H](NC(=O)[C@@H]1CC[C@@H]2CCN(C(=O)CC(=O)N3CCC(C#Cc4cccc5c4CN(C4CCC(=O)NC4=O)C5=O)CC3)C[C@H](NC(=O)c3cc4cc(C(F)(F)P(=O)(O)O)ccc4[nH]3)C(=O)N21)C(=O)NC(c1ccccc1)c1ccccc1 (stereo not given in full)")
67
>>> result_value("NC(=O)CC[C@H](NC(=O)[C@@H]1CC[C@@H]2CCN(C(=O)CCCCCC#Cc3ccc4c(c3)CN(C3CCC(=O)NC3=O)C4=O)C[C@H](NC(=O)c3cc4cc(C(F)(F)P(=O)(O)O)ccc4[nH]3)C(=O)N21)C(=O)NC(c1ccccc1)c1ccccc1 (stereo not given in full)")
104
>>> result_value("NC(=O)CC[C@H](NC(=O)[C@@H]1CC[C@@H]2CCN(C(=O)NCCCCC#Cc3cccc4c3CN(C3CCC(=O)NC3=O)C4=O)C[C@H](NC(=O)c3cc4cc(C(F)(F)P(=O)(O)O)ccc4[nH]3)C(=O)N21)C(=O)NC(c1ccccc1)c1ccccc1 (stereo not given in full)")
91

// below: IC50 requested for another compound
Dear colleague, please send me the reported IC50 for NC(=O)CC[C@H](NC(=O)[C@@H]1CC[C@@H]2CCN(C(=O)CCCCCCC#Cc3cccc4c3CN(C3CCC(=O)NC3=O)C4=O)C[C@H](NC(=O)c3cc4cc(C(F)(F)P(=O)(O)O)ccc4[nH]3)C(=O)N21)C(=O)NC(c1ccccc1)c1ccccc1 (stereo not given in full) when you can.
25
